Listed here: items and their measured TGI.
# Tested on: LOX IMVI melanoma
# Test Name: NCI tumour cell line growth inhibition, 48 h

>  <Compound>
Cc1c(N2C(=O)CS(=O)(=O)C2c2cccc(Oc3ccccc3)c2)c(=O)n(-c2ccccc2)n1C (stereo not given)

>  <TGI>
> 100 µM

$$$$
>  <Compound>
C=CCOC(=O)NC1C(OC(C)[C@@H](NC(=O)OCc2ccccc2)C(=O)OC(C)(C)C)OC(COC(C)=O)C(OC(C)=O)C1OC(C)=O (stereo not given in full)

>  <TGI>
> 100 µM

$$$$
>  <Compound>
O=C(c1cccs1)N(C(=S)OC12CC3CC(CC(C3)C1)C2)c1ccccc1

>  <TGI>
92.9 µM

$$$$
>  <Compound>
COc1ccc(-n2cnc3c2NC(C)(C)N=C3C(N)=O)c(OC)c1

>  <TGI>
> 100 µM

$$$$
>  <Compound>
COc1cc2c(cc1OCCCCN1C(=O)c3cccc4cccc(c34)C1=O)N=C[C@@H]1CCCN1C2=O

>  <TGI>
> 100 µM

$$$$
>  <Compound>
CC1CC2OC(=O)C(C)C2CC2(C)C(OC3OC(CO)C(O)C(O)C3O)OCCC12 (stereo not given)

>  <TGI>
> 100 µM

$$$$
>  <Compound>
C=CCC1(O)c2ccccc2C(=O)c2c(NCCN(CC(=O)OCC)CC(=O)OCC)cccc21 (stereo not given)

>  <TGI>
> 100 µM

$$$$
>  <Compound>
Cc1ccc(N2C(=O)CS/C2=C(\C#N)c2nc3ccccc3[nH]2)cc1

>  <TGI>
> 100 µM

$$$$
>  <Compound>
O=C1c2ccccc2OP(=O)(OCC(F)(F)F)OC1(C(F)(F)F)C(F)(F)F (stereo not given)

>  <TGI>
> 100 µM

$$$$
>  <Compound>
Cc1ccc(-c2nc(C#N)c(S(=O)(=O)n3nc(C)cc3N)o2)cc1

>  <TGI>
3.59 µM

$$$$
